Cited source: ChEMBL document CHEMBL3627606

// concentration lookup, one value per entry
- Test system: Brain
- Experiment notes: Drug concentration in C57BL/6 mouse brain at 100 mg/kg, ip administered as single dose
- Format: ADME, organism-based
- Run parameters: in vivo, read-out: Drug uptake

>  <Record smiles>
Cc1ccoc1C(=O)Nc1ccc(N2C(=O)c3cccc(F)c3C2=O)c(Cl)c1

>  <concentration, nM>
9200

$$$$
>  <Record smiles>
Cc1ccoc1C(=O)Nc1ccc(N2C(=O)c3ccncc3C2=O)c(Cl)c1

>  <concentration, nM>
2520

$$$$
>  <Record smiles>
Cc1ccoc1C(=O)Nc1ccc(N2C(=O)c3ccc(Cl)cc3C2=O)c(Cl)c1

>  <concentration, nM>
1400

$$$$

* * *

- Experiment notes: Plasma clearance in Sprague-Dawley rat at 0.2 mg/kg, iv by LC-MS/MS analysis
// clearance lookup, one value per entry

>  <Record smiles>
Cc1ccoc1C(=O)Nc1ccc(N2C(=O)c3ccc(Cl)cc3C2=O)c(Cl)c1

>  <Endpoint unit>
mL/min/kg

>  <clearance>
33

$$$$
>  <Record smiles>
Cc1ccoc1C(=O)Nc1ccc(N2C(=O)c3cccc(F)c3C2=O)c(Cl)c1

>  <Endpoint unit>
mL/min/kg

>  <clearance>
13.3

$$$$
>  <Record smiles>
O=C(Nc1nc(C(F)(F)F)co1)C1c2ccccc2Oc2ccccc21

>  <Endpoint unit>
mL/min/kg

>  <clearance>
35

$$$$
>  <Record smiles>
Cc1ccoc1C(=O)Nc1ccc(N2C(=O)c3ccncc3C2=O)c(Cl)c1

>  <Endpoint unit>
mL/min/kg

>  <clearance>
382

$$$$

* * *

- Target: Metabotropic glutamate receptor 1 (Rattus norvegicus, UniProt P23385)
- Sequence (P23385 whole entry): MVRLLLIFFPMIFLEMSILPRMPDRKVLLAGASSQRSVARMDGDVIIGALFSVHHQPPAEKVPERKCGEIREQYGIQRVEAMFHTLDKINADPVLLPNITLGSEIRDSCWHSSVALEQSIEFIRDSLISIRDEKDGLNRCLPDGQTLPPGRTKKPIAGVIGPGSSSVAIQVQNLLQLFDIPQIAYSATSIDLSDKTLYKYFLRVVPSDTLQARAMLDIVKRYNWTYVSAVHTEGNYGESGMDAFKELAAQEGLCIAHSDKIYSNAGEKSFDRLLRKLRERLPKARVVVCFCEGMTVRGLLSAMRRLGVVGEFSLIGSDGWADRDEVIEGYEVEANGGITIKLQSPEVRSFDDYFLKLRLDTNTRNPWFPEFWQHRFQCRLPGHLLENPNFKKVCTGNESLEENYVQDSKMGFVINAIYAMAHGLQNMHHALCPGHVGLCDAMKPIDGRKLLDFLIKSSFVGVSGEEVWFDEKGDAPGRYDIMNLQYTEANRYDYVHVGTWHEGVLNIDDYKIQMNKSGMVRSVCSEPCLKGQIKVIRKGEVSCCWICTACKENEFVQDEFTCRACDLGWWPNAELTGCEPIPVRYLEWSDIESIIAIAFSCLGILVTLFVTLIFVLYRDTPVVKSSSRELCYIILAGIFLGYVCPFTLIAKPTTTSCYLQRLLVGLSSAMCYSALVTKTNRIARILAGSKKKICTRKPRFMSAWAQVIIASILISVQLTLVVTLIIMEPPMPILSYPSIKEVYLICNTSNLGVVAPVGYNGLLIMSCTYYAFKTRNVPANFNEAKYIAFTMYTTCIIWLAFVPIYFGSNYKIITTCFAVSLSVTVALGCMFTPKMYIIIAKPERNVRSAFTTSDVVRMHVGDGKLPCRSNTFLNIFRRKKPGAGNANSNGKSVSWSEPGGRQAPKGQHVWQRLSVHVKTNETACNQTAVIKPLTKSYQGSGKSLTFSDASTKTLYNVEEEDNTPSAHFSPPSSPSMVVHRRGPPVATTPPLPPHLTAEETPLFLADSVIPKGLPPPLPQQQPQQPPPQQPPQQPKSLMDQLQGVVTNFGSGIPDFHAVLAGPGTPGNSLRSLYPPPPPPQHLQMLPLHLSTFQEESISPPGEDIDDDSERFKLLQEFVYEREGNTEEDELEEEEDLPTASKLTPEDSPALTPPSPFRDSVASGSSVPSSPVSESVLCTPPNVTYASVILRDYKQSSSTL
- Experiment notes: Positive allosteric modulation of rat mGlu1 receptor assessed as potentiation of glutamate-induced calcium mobiliztion by cell based assay
// EC50 lookup, one value per entry

>  <Record smiles>
Cc1ccoc1C(=O)Nc1ccc(N2C(=O)c3ccncc3C2=O)c(Cl)c1

>  <Endpoint unit>
µM

>  <EC50>
0.113

$$$$
>  <Record smiles>
Cc1ccoc1C(=O)Nc1ccc(N2C(=O)c3cccc(F)c3C2=O)c(Cl)c1

>  <Endpoint unit>
µM

>  <EC50>
0.0407

$$$$
>  <Record smiles>
Cc1ccoc1C(=O)Nc1ccc(N2C(=O)c3ccc(Cl)cc3C2=O)c(Cl)c1

>  <Endpoint unit>
µM

>  <EC50>
0.113

$$$$
>  <Record smiles>
O=C(Nc1ccc(N2C(=O)c3cccc(Cl)c3C2=O)c(Cl)c1)c1ncccc1Cl

>  <Endpoint unit>
µM

>  <EC50>
0.356

$$$$

* * *

- Target: Metabotropic glutamate receptor 1 (Homo sapiens)
- Experiment notes: Negative allosteric modulation of human mGlu1 receptor in HEK293 cells assessed as potentiation of glutamate-induced calcium mobiliztion by Fluo-4AM dye based fluorescence analysis
- Type: functional, cell-based
- Sequence (Q13255 whole entry): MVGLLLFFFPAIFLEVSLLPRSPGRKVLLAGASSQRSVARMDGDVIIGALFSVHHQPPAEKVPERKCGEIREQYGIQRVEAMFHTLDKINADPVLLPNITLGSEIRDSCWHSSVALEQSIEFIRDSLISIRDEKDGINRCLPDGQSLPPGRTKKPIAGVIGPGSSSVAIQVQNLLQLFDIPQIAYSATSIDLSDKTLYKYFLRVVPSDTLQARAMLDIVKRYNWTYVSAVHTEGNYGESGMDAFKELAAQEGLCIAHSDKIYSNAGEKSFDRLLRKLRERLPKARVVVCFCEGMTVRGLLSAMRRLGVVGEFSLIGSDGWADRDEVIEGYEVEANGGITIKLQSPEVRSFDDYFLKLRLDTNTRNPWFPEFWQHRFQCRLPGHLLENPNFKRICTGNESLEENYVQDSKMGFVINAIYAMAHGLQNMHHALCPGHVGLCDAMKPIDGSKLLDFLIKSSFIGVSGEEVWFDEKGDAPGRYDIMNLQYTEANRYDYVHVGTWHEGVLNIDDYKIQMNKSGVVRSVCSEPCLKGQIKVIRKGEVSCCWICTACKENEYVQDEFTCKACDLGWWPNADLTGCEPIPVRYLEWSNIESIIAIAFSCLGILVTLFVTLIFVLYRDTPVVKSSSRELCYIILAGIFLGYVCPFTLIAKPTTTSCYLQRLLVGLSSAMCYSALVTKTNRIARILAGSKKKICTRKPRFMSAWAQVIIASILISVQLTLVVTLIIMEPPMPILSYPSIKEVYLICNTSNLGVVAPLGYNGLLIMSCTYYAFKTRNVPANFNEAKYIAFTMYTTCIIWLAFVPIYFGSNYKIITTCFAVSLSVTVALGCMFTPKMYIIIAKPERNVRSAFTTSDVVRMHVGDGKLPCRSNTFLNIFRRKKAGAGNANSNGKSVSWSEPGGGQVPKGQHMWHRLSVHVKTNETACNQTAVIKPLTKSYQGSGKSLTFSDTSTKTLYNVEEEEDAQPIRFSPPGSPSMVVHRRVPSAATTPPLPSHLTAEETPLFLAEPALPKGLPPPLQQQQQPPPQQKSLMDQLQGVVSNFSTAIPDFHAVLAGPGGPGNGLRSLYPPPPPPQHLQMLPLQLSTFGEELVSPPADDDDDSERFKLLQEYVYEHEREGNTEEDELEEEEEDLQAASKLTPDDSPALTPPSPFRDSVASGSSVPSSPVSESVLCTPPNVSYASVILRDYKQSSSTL
Measurement label: IC50 (nM)

>  <Compound>
CC1(C)C2C(=O)N(c3ccc(NC(=O)c4ccccn4)cc3Cl)C(=O)C21 (stereo unspecified)

>  <Target>
Metabotropic glutamate receptor 1 (Homo sapiens)

>  <Readout value>
140

$$$$

* * *

- Target: Metabotropic glutamate receptor 1 (Homo sapiens, UniProt Q13255)
- Experiment notes: Positive allosteric modulation of human mGlu1 receptor in HEK293 cells assessed as potentiation of glutamate-induced calcium mobiliztion by Fluo-4AM dye based fluorescence analysis
- Type: functional, cell-based
- Run parameters: read-out: EC50
pEC50: −log10 of the molar value.

>  <Record smiles>
O=C(Nc1ccc(N2C(=O)c3ccccc3C2=O)c(Cl)c1)c1ccco1

>  <Target>
Metabotropic glutamate receptor 1 (Homo sapiens, UniProt Q13255)

>  <Inequality operator>
=

>  <pEC50>
6.26

$$$$
>  <Record smiles>
O=C(Nc1ccc(N2C(=O)c3ccccc3C2=O)c(Cl)c1)c1ccc(-c2ccccc2)o1

>  <Target>
Metabotropic glutamate receptor 1 (Homo sapiens, UniProt Q13255)

>  <Inequality operator>
<

>  <pEC50>
5.00

$$$$
>  <Record smiles>
CC(C)(C)c1ccc(C(=O)Nc2ccc(N3C(=O)c4ccccc4C3=O)c(Cl)c2)o1

>  <Target>
Metabotropic glutamate receptor 1 (Homo sapiens, UniProt Q13255)

>  <Inequality operator>
<

>  <pEC50>
5.00

$$$$
>  <Record smiles>
O=C(Nc1ccc(N2C(=O)c3ccccc3C2=O)c(Cl)c1)c1csnn1

>  <Target>
Metabotropic glutamate receptor 1 (Homo sapiens, UniProt Q13255)

>  <Inequality operator>
<

>  <pEC50>
5.00

$$$$
>  <Record smiles>
Cc1ccoc1C(=O)Nc1ccc(N2C(=O)c3cccc(Cl)c3C2=O)c(Cl)c1

>  <Target>
Metabotropic glutamate receptor 1 (Homo sapiens, UniProt Q13255)

>  <Inequality operator>
=

>  <pEC50>
7.48

$$$$

* * *

- Target: Metabotropic glutamate receptor 1 (Homo sapiens)
- Experiment notes: Positive allosteric modulation of human mGlu1 receptor in HEK293 cells assessed as potentiation of glutamate-induced calcium mobiliztion by Fluo-4AM dye based fluorescence analysis relative to glutamate
- Assay type: functional, cell-based
- Sequence (Q13255 19-1194 limits assumed): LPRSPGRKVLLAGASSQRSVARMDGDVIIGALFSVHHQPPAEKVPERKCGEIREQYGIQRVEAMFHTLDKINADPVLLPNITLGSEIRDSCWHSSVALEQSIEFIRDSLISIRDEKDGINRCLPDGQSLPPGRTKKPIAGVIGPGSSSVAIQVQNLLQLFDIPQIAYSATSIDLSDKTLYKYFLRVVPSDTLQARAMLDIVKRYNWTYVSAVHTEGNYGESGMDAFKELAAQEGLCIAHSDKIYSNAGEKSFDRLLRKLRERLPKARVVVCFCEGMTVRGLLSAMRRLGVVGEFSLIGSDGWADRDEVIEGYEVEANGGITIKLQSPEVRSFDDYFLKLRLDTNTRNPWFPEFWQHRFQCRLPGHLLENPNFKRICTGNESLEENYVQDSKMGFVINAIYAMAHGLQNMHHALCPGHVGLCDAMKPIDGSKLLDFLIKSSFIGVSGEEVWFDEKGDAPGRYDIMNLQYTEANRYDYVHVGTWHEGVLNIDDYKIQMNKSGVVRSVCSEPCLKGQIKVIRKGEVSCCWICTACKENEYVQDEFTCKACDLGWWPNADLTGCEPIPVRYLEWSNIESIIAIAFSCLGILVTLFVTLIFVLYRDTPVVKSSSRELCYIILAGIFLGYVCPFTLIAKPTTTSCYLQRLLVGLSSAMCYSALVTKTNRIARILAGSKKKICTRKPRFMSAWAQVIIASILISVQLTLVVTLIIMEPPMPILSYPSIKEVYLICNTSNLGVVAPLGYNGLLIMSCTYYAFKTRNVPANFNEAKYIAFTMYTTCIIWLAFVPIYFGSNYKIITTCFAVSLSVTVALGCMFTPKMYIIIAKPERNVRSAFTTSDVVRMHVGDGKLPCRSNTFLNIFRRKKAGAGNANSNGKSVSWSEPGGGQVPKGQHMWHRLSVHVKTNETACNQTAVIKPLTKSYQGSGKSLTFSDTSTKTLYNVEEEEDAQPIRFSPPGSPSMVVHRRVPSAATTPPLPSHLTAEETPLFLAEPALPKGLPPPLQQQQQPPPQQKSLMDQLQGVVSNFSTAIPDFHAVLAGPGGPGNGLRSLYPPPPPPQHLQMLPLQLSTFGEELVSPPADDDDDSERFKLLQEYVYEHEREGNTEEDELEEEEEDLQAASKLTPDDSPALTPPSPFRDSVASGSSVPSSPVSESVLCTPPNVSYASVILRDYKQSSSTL
// %max lookup, one value per entry
Measurement label: %max (%)

>  <Record smiles>
O=C(Nc1ccc(N2C(=O)c3ccccc3C2=O)c(Cl)c1)c1csnn1

>  <Target>
Metabotropic glutamate receptor 1 (Homo sapiens)

>  <Readout value>
39

$$$$
>  <Record smiles>
Cc1ccoc1C(=O)Nc1ccc(N2C(=O)c3ccccc3C2=O)c(Cl)c1

>  <Target>
Metabotropic glutamate receptor 1 (Homo sapiens)

>  <Readout value>
118

$$$$
>  <Record smiles>
Cc1ccoc1C(=O)Nc1ccc(N2C(=O)c3cccc(F)c3C2=O)c(Cl)c1

>  <Target>
Metabotropic glutamate receptor 1 (Homo sapiens)

>  <Readout value>
98

$$$$
>  <Record smiles>
Cc1ccc2c(c1)C(=O)N(c1ccc(NC(=O)c3occc3C)cc1Cl)C2=O

>  <Target>
Metabotropic glutamate receptor 1 (Homo sapiens)

>  <Readout value>
86

$$$$
>  <Record smiles>
Cc1ccc(C(=O)Nc2ccc(N3C(=O)c4ccccc4C3=O)c(Cl)c2)o1

>  <Target>
Metabotropic glutamate receptor 1 (Homo sapiens)

>  <Readout value>
60

$$$$
>  <Record smiles>
Cc1ccoc1C(=O)Nc1ccc(N2C(=O)c3cccc(C)c3C2=O)c(Cl)c1

>  <Target>
Metabotropic glutamate receptor 1 (Homo sapiens)

>  <Readout value>
86

$$$$
>  <Record smiles>
O=C(Nc1ccc(N2C(=O)c3ccccc3C2=O)c(Cl)c1)c1ccc(Br)o1

>  <Target>
Metabotropic glutamate receptor 1 (Homo sapiens)

>  <Readout value>
45

$$$$
>  <Record smiles>
Cc1ccoc1C(=O)Nc1ccc(N2C(=O)c3ccncc3C2=O)c(Cl)c1

>  <Target>
Metabotropic glutamate receptor 1 (Homo sapiens)

>  <Readout value>
94

$$$$
>  <Record smiles>
Cc1ccoc1C(=O)Nc1ccc(N2C(=O)c3cccc(Cl)c3C2=O)c(Cl)c1

>  <Target>
Metabotropic glutamate receptor 1 (Homo sapiens)

>  <Readout value>
91

$$$$
>  <Record smiles>
O=C(Nc1ccc(N2C(=O)c3ccccc3C2=O)c(Cl)c1)c1ccc(Cl)o1

>  <Target>
Metabotropic glutamate receptor 1 (Homo sapiens)

>  <Readout value>
55

$$$$

* * *

// pEC50 lookup, one value per entry
- Target: Metabotropic glutamate receptor 1 (Homo sapiens, UniProt Q13255)
- Experiment notes: Positive allosteric modulation of human mGlu1 receptor in HEK293 cells assessed as potentiation of glutamate-induced calcium mobiliztion by Fluo-4AM dye based fluorescence analysis
- Type: functional, cell-based
- Run parameters: read-out: EC50
pEC50: −log10 of the molar value.
Measurement label: pEC50

>  <Compound>
Cc1ccoc1C(=O)Nc1ccc(N2C(=O)c3ccncc3C2=O)c(Cl)c1

>  <Readout value>
7.01

$$$$
>  <Compound>
O=C(Nc1ccc(N2C(=O)c3ccccc3C2=O)c(Cl)c1)c1coc2ccccc12

>  <Readout value>
< 5.00

$$$$
>  <Compound>
O=C(Nc1ccc(N2C(=O)c3ccccc3C2=O)c(Cl)c1)c1ncco1

>  <Readout value>
< 5.00

$$$$
>  <Compound>
O=C(Nc1ccc(N2C(=O)c3ccccc3C2=O)c(Cl)c1)c1cscn1

>  <Readout value>
5.35

$$$$
>  <Compound>
Cc1cc(C)c(C(=O)Nc2ccc(N3C(=O)c4ccccc4C3=O)c(Cl)c2)o1

>  <Readout value>
< 5.00

$$$$
>  <Compound>
O=C(Nc1ccc(N2C(=O)c3ccccc3C2=O)c(Cl)c1)c1cnn[nH]1

>  <Readout value>
< 5.00

$$$$
>  <Compound>
Cc1ccc(C(=O)Nc2ccc(N3C(=O)c4ccccc4C3=O)c(Cl)c2)o1

>  <Readout value>
< 5.00

$$$$
>  <Compound>
Cc1ccoc1C(=O)Nc1ccc(N2C(=O)c3ccc(Cl)cc3C2=O)c(Cl)c1

>  <Readout value>
7.09

$$$$
>  <Compound>
CCc1ccc(C(=O)Nc2ccc(N3C(=O)c4ccccc4C3=O)c(Cl)c2)o1

>  <Readout value>
< 5.00

$$$$
>  <Compound>
O=C(Nc1ccc(N2C(=O)c3ccccc3C2=O)c(Cl)c1)c1ccc[nH]1

>  <Readout value>
< 5.00

$$$$
>  <Compound>
O=C(Nc1ccc(N2C(=O)c3ccccc3C2=O)c(Cl)c1)c1cc2ccccc2o1

>  <Readout value>
< 5.00

$$$$
>  <Compound>
O=C(Nc1ccc(N2C(=O)c3ccccc3C2=O)c(Cl)c1)C1CCCO1 (stereo unspecified)

>  <Readout value>
< 5.00

$$$$
>  <Compound>
CS(=O)(=O)c1ccc(C(=O)Nc2ccc(N3C(=O)c4ccccc4C3=O)c(Cl)c2)o1

>  <Readout value>
< 5.00

$$$$
>  <Compound>
Cc1ccoc1C(=O)Nc1ccc(N2C(=O)c3ccc(F)cc3C2=O)c(Cl)c1

>  <Readout value>
7.62

$$$$
>  <Compound>
Cc1ccoc1C(=O)Nc1ccc(N2C(=O)c3cccc(C)c3C2=O)c(Cl)c1

>  <Readout value>
7.61

$$$$
>  <Compound>
Cc1ccoc1C(=O)Nc1ccc(N2C(=O)c3ccccc3C2=O)c(Cl)c1

>  <Readout value>
7.01

$$$$
>  <Compound>
O=C(Nc1ccc(N2C(=O)c3ccccc3C2=O)c(Cl)c1)c1cn[nH]c1

>  <Readout value>
< 5.00

$$$$
>  <Compound>
O=C(Nc1ccc(N2C(=O)c3ccccc3C2=O)c(Cl)c1)c1cocn1

>  <Readout value>
< 5.00

$$$$
>  <Compound>
CN(C)Cc1ccc(C(=O)Nc2ccc(N3C(=O)c4ccccc4C3=O)c(Cl)c2)o1

>  <Readout value>
< 5.00

$$$$
>  <Compound>
Cc1ccoc1C(=O)Nc1ccc(N2C(=O)c3cccc(F)c3C2=O)c(Cl)c1

>  <Readout value>
7.50

$$$$
>  <Compound>
O=C(Nc1ccc(N2C(=O)c3ccccc3C2=O)c(Cl)c1)c1cnco1

>  <Readout value>
< 5.00

$$$$
